Reported luminescent signals values are given for each entry in this list.
# Test system: TMD8
# test: Combined drug treatment cell viability (CellTiter-Glo), ibrutinib with BET inhibitors, TMD8
# Type: cell-based
# cond: ibrutinib 400 nM with I-BET151 200 nM, JQ1 20 nM, OTX015 100 nM or medium alone (row), 3 days

Known results for compounds:
Cc1sc2c(c1C)C(c1ccc(Cl)cc1)=N[C@@H](CC(=O)OC(C)(C)C)c1nnc(C)n1-2 ... 15282.03
C=CC(=O)N1CCC[C@@H](n2nc(-c3ccc(Oc4ccccc4)cc3)c3c(N)ncnc32)C1 ... 25674.76
Cc1sc2c(c1C)C(c1ccc(Cl)cc1)=N[C@@H](CC(=O)Nc1ccc(O)cc1)c1nnc(C)n1-2 ... 9301.531

QUERY: What value of luminescent signals has been reported for the following compound? COc1cc2c(cc1-c1c(C)noc1C)ncc1[nH]c(=O)n([C@H](C)c3ccccn3)c12
RESULT: 11191.36

---

# Test system: OCI-LY10
# test: Combined drug treatment cell viability (CellTiter-Glo), ibrutinib with BET inhibitors, OCI-LY10
# Type: cell-based
# cond: OCI-LY-10; ibrutinib 0.64 nM with I-BET151 5 uM, JQ1 1 uM, OTX015 1 uM or medium alone (row); 3 days
Reported luminescent signals values are given for each entry in this list.
Answer using only a numeral; do not append any unit.

Known results for molecules:
Cc1sc2c(c1C)C(c1ccc(Cl)cc1)=N[C@@H](CC(=O)OC(C)(C)C)c1nnc(C)n1-2 ... 52166.4
Cc1sc2c(c1C)C(c1ccc(Cl)cc1)=N[C@@H](CC(=O)Nc1ccc(O)cc1)c1nnc(C)n1-2 ... 40790.66
COc1cc2c(cc1-c1c(C)noc1C)ncc1[nH]c(=O)n([C@H](C)c3ccccn3)c12 ... 38594.93

QUERY: What value of luminescent signals has been reported for the following molecule? C=CC(=O)N1CCC[C@@H](n2nc(-c3ccc(Oc4ccccc4)cc3)c3c(N)ncnc32)C1
RESULT: 63983.91

---

# Test system: OCI-LY3
# test: Combined drug treatment cell viability (CellTiter-Glo), ibrutinib with BET inhibitors, OCI-LY3
# Type: cell-based
# cond: OCI-LY-3; ibrutinib 0.0256 nM with I-BET151 5 uM, JQ1 1 uM, OTX015 1 uM or medium alone (row); 3 days
Reported luminescent signals values are given for each entry in this list.
Answer using only a numeral; do not append any unit.

Known results for molecules:
Cc1sc2c(c1C)C(c1ccc(Cl)cc1)=N[C@@H](CC(=O)Nc1ccc(O)cc1)c1nnc(C)n1-2 ... 14387.47
COc1cc2c(cc1-c1c(C)noc1C)ncc1[nH]c(=O)n([C@H](C)c3ccccn3)c12 ... 15418.7
C=CC(=O)N1CCC[C@@H](n2nc(-c3ccc(Oc4ccccc4)cc3)c3c(N)ncnc32)C1 ... 63957.7

In the following, a different molecule is considered.
QUERY: What value of luminescent signals has been reported for the following molecule? Cc1sc2c(c1C)C(c1ccc(Cl)cc1)=N[C@@H](CC(=O)OC(C)(C)C)c1nnc(C)n1-2
RESULT: 21973.49

---

# System: OCI-LY10
# test: Combined drug treatment cell viability (CellTiter-Glo), ibrutinib with BET inhibitors, OCI-LY10
# Type: cell-based
# cond: OCI-LY-10; ibrutinib 3.2 nM with I-BET151 5 uM, JQ1 1 uM, OTX015 1 uM or medium alone (row); 3 days
# Method: The DLBCL cell lines used during the experiments included TMD8, OCI-LY3, OCI-LY10, U-2932 and SU-DHL-2. DLBCL cells at either 1×10^4 cells or 2×10^4 cells were plated onto each well of a 96-W plate (Table 1). […] The 96-W plate was then incubated for 3 days. Cell viability was examined using a CellTiter-Glo assay. A 40 μL of CellTiter-Glo reagent was added directly into each well of the 96-W plate. […] CI is a quantitative description of the interaction property of the combination of two drugs.
readout_kind: luminescent signals
Answer using only a numeral; do not append any unit.

Known results for compounds:
C=CC(=O)N1CCC[C@@H](n2nc(-c3ccc(Oc4ccccc4)cc3)c3c(N)ncnc32)C1 ... 51190.81
Cc1sc2c(c1C)C(c1ccc(Cl)cc1)=N[C@@H](CC(=O)OC(C)(C)C)c1nnc(C)n1-2 ... 39783.52
COc1cc2c(cc1-c1c(C)noc1C)ncc1[nH]c(=O)n([C@H](C)c3ccccn3)c12 ... 31834.18

In the following, a different compound is considered.
QUERY: What value of luminescent signals has been reported for the following compound? Cc1sc2c(c1C)C(c1ccc(Cl)cc1)=N[C@@H](CC(=O)Nc1ccc(O)cc1)c1nnc(C)n1-2
RESULT: 33872.14
